# target desc: T1, rat VEGF164 (rat, UniProt P16612)
# T1 chain: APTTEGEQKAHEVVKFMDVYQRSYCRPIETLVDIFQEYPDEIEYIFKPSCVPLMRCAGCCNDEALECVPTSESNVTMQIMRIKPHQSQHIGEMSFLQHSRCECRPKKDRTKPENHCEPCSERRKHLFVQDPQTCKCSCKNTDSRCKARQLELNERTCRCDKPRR
# assay explanation: SPR, pH 5
observed property: Kd (nM)
# value in nM; strip the unit string

Can you share its Kd? I mean this binder: 578-max (antibody, V domains shown) VH: EVQLVESGGGLVQPGGSLRLSCTASGFSLTDYYYMTWVRQAPGKGLEWVGFIDPDDDPYYATWAKGRFTISRDTSKNTVYLQMNSLRAEDTAVYYCAGGDHNSGWGLDIWGQGTLVTVSS VL: EIVMTQSPSTLSASVGDRVIITCQASEIIHSWLAWYQQKPGKAPKLLIYLASTLASGVPSRFSGSGSGTQFTLTISSLQPDDFATYYCQNVYLASTNGANFGQGTKLTVLG 0.598

What does the data say about its Kd? Entry: 511-max (antibody, V domains shown) VH: EVQLVESGGGLVQPGGSLRLSCTVSGFSLNTYYMNWVRQAPGKGLEWVGIIAPDDTTYYASWAKSRSTISRDTSKNTVYLQMNSLRAEDTAVYYCARSGDTTAWGADIWGQGTLVTVSS VL: EIVMTQSPSTLSASVGDRVIITCQASQSINIWLSWYQQKPGKAPKLLIYRASTLASGVPSRFSGSGSGTEFTLTISSLQPDDFATYYCQANYAYSAGYGAAFGQGTKLTVLG 0.106

Report Kd for 509-min (antibody, V domains shown) VH: EVQLVESGGGLVQPGGSLRLSCAASGFSLSSYYMCWVRQAPGKGLEWVSCLDYVGDTDYASWAKGRFTISRDNSKNTLYLQMNSLRAEDTAVYYCAKTDDSRGWGLNIWGQGTLVTVSS VL: EIVMTQSPSTLSASVGDRVIITCQASQNIRIWLSWYQQKPGKAPKLLIYKASTLESGVPSRFSGSGSGAEFTLTISSLQPDDFATYYCQNNAHYSTNGGTFGQGTKLTVLG please. 2.41

Entry 511-min (antibody, V domains shown) VH: EVQLVESGGGLVQPGGSLRLSCAASGFSLNTYYMNWVRQAPGKGLEWVSIIAPDDTTYYASWAKSRFTISRDNSKNTLYLQMNSLRAEDTAVYYCAKSGDTTAWGADIWGQGTLVTVSS VL: EIVMTQSPSTLSASVGDRVIITCQASQSINIWCSWYQQKPGKAPKLLIYRASTLASGVPSRFSGSGSGAEFTLTISSLQPDDFATYYCQANYAYSAGYGAAFGQGTKLTVLG has what Kd? 2.04

I have this binder here, 567-min (antibody, V domains shown) VH: EVQLVESGGGLVQPGGSLRLSCAASGFSLSDYYMCWVRQAPGKGLEWVSCLDYFGSTDDASWAKGRFTISRDNSKNTLYLQMNSLRAEDTAVYYCAKTDDSRGWGLNIWGQGTLVTVSS VL: EIVMTQSPSTLSASVGDRVIITCQADQSIYIWLSWYQQKPGKAPKLLIYKASTLESGVPSRFSGSGSGAEFTLTISSLQPDDFATYYCQNNAHYSTNGGTFGQGTKLTVLG , and I need its recorded Kd. 0.279

Give its Kd value. Item: 567-max (antibody, V domains shown) VH: EVQLVESGGGLVQPGGSLRLSCSVSGFSLSDYYMCWVRQAPGKGLEWVGCLDYFGSTDDASWAKGRFTISKDTSKNTVYLQMNSLRAEDTAVYYCARTDDSRGWGLNIWGQGTLVTVSS VL: EIVMTQSPSTLSASVGDRVIITCQADQSIYIWLSWYQQKPGKAPKLLIYKASTLESGVPSRFSGSGSGTQFTLTISSLQPDDFATYYCQNNAHYSTNGGTFGQGTKLTVLG 0.149
